System: BxPC3 cells
Test: Clonogenic survival assay, gemcitabine kill curves
Type: cell-based, human
Conditions: Homo sapiens, BXPC-3, BxPC3, control shRNA; read-out: IC50 gemcitabine
assay.readout: IC50

Recorded IC50 for Nc1ccn([C@@H]2O[C@H](CO)[C@@H](O)C2(F)F)c(=O)n1 , please?
~80 nM

###

Test system: BxPC3 cells
Assay: Clonogenic survival assay, gemcitabine kill curves
Type: cell-based, human
Details: Homo sapiens, BXPC-3, BxPC3 VDRkd cells, WT-VDR co-transfected with AML1/ETO; read-out: IC50 gemcitabine
pIC50: −log10 of the molar value.
assay.readout: pIC50

Requested read-out pIC50, target or system BxPC3 cells, entry Nc1ccn([C@@H]2O[C@H](CO)[C@@H](O)C2(F)F)c(=O)n1
~7.10
